Source listed as patent US20080045535A1.

The following compounds are shown together with reported inhibition at 10 µM values.
# system: HEK 293 GPR73 (prokineticin 1 receptor) expressing cells (Homo sapiens, UniProt Q8TCW9)
# Construct: expressed in transfected cells; host or cells: HEK 293
# Sequence (Q8TCW9 whole entry): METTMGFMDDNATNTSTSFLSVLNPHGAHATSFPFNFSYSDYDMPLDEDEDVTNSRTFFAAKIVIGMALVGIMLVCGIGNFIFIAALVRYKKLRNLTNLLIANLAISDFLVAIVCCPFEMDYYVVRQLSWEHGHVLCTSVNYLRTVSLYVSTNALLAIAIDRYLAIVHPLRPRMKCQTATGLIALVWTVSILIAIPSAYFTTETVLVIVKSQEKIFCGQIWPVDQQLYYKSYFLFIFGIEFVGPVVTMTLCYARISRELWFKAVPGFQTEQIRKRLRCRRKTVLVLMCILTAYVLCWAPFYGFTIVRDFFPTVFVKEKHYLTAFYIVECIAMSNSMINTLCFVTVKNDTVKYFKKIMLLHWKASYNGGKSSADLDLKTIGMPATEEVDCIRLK
# procedureSummary: PK1 functional assay: screening for PK1 antagonists on the FLIPR (calcium fluorescence)
# Format: cell-based
# studyConditions: HEK293, compound at 10 μM, HEK 293 GPR73 cells, multiple values = repeat tests, read-out: Ca^2+ Mobilization % Inh @10 μM
The reply should be a number in %, with the unit left off.

Previously resolved entries follow.
CSc1ccc(Cn2c(NCCNC(=N)N)nc(=O)n(Cc3ccc(Cl)c(Cl)c3)c2=O)cc1
98
N=C(N)NCCNc1nc(=O)n(Cc2ccccc2)c(=O)n1Cc1ccc(C(N)=O)cc1
80
COc1ccc(Cn2c(NCCNC(=N)N)nc(=O)n(Cc3cccc(Cl)c3)c2=O)cc1
81
COc1ccc(Cn2c(NCCNC(=N)Nc3ccc(Cl)cc3)nc(=O)n(Cc3ccc(Cl)c(Cl)c3)c2=O)cc1
100
COc1ccc(Cn2c(NCCNC(=N)NC3C4CC5CC(C4)CC3C5)nc(=O)n(Cc3ccc(F)cc3)c2=O)cc1 (stereo not drawn)
95
COc1ccc(Cn2c(C(=O)NCCNC(=N)N)cc(=O)n(Cc3ccc(OC)cc3)c2=O)cc1
92
COc1ccc(Cn2c(NCCNC(=N)N)nc(=O)n(Cc3ccc(Cl)cc3)c2=O)cc1
101
COC(=O)c1ccc(Cn2c(NCCNC(=N)N)nc(=O)n(Cc3ccc(Cl)c(Cl)c3)c2=O)cc1
82

We now examine a further compound.
### Prompt Report value only: inhibition at 10 µM, HEK 293 GPR73 (prokineticin 1 receptor) expressing cells (Homo sapiens, UniProt Q8TCW9), COc1ccc(CCn2c(=O)nc(NCCNC(=N)N)n(Cc3ccc(OC)cc3)c2=O)cc1
### Response 86
